tested on: retinal pericytes; experiment: cells; conditions: read-out: EC50 of pericyte contraction of silicone substrate
measuredParameter: pEC50
Interpret pEC50 as the negative base-10 log of the concentration measured in mol/L.

IN: Request - read-out pEC50 | tested on retinal pericytes | molecule NC[C@H](O)c1ccc(O)c(O)c1 [NE, norepinephrine]
OUT: 5.10
